B1: CPEB3 Ribozyme (parent)
chain: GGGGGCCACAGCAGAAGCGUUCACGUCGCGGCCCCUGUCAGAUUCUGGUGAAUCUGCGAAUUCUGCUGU

- Variants of: B1
- protocol: self-cleavage, relative activity (ratio to wild type); higher = more cleavage; co-transcriptional

{"alteration": "G41C C57G", "self-cleavage": 0.249}
{"alteration": "U21G A59G", "self-cleavage": 0.675}
{"alteration": "G4C U44A", "self-cleavage": 0.373}
{"alteration": "C18U G50C", "self-cleavage": 0.803}
{"alteration": "C9U C39U", "self-cleavage": 0.935}
{"alteration": "A23G A51G", "self-cleavage": 0.962}
{"alteration": "G1C G14C", "self-cleavage": 0.152}
{"alteration": "G5U", "self-cleavage": 0.316}
{"alteration": "G4A C54U", "self-cleavage": 0.776}
{"alteration": "U55G U64G", "self-cleavage": 0.491}
{"alteration": "U43C U69C", "self-cleavage": 1.07}
{"alteration": "C7U G25U", "self-cleavage": 0.089}
{"alteration": "C32A U62A", "self-cleavage": 0.281}
{"alteration": "G30C C57A", "self-cleavage": 0.302}
{"alteration": "C54G U62C", "self-cleavage": 0.483}
{"alteration": "G11C U69G", "self-cleavage": 0.97}
{"alteration": "C33A C34U", "self-cleavage": 0.489}
{"alteration": "A8U U67C", "self-cleavage": 1}
{"alteration": "A16U A42U", "self-cleavage": 0.82}
{"alteration": "C18U U49C", "self-cleavage": 0.864}
{"alteration": "A42G C54A", "self-cleavage": 0.708}
{"alteration": "U55C U64A", "self-cleavage": 0.567}
{"alteration": "G1A G17C", "self-cleavage": 0.0672}
{"alteration": "A51C A52U", "self-cleavage": 0.864}
{"alteration": "G5A C32G", "self-cleavage": 0.847}
{"alteration": "G2U U49C", "self-cleavage": 0.0667}
{"alteration": "U49G U69A", "self-cleavage": 1.01}
{"alteration": "C22A C33G", "self-cleavage": 0.168}
{"alteration": "G41C G47C", "self-cleavage": 0.939}
{"alteration": "C9U C22G", "self-cleavage": 0.21}
{"alteration": "G41C U64C", "self-cleavage": 0.394}
{"alteration": "A13U C66G", "self-cleavage": 0.413}
{"alteration": "G31A U55A", "self-cleavage": 0.662}
{"alteration": "A8C G19C", "self-cleavage": 0.107}
{"alteration": "C9A G17C", "self-cleavage": 0.204}
{"alteration": "A16G U53G", "self-cleavage": 0.784}
{"alteration": "C24G C35A", "self-cleavage": 0.167}
{"alteration": "G3U G19C", "self-cleavage": 0.0665}
{"alteration": "A15G U44G", "self-cleavage": 0.954}
{"alteration": "G30U A40U", "self-cleavage": 0.214}
{"alteration": "C6U C35G", "self-cleavage": 0.2}
{"alteration": "G3A C6G", "self-cleavage": 0.0163}
{"alteration": "U49C U61A", "self-cleavage": 0.911}
{"alteration": "G1C U20A", "self-cleavage": 0.0802}
{"alteration": "C12A G65C", "self-cleavage": 0.841}
{"alteration": "C33G C63A", "self-cleavage": 0.323}
{"alteration": "C6G U67A", "self-cleavage": 0.325}
{"alteration": "A42C G47C", "self-cleavage": 0.977}
{"alteration": "C9A U21A", "self-cleavage": 1.01}
{"alteration": "G47U U53A", "self-cleavage": 1.01}
{"alteration": "U44A U55G", "self-cleavage": 0.551}
{"alteration": "G25U C63G", "self-cleavage": 0.175}
{"alteration": "C22G U53A", "self-cleavage": 0.136}
{"alteration": "U38G C39U", "self-cleavage": 0.322}
{"alteration": "G11C G68U", "self-cleavage": 0.881}
{"alteration": "C22A G68U", "self-cleavage": 0.264}
{"alteration": "U38G G68U", "self-cleavage": 0.273}
{"alteration": "G19C A59C", "self-cleavage": 0.0891}
{"alteration": "G1C U55G", "self-cleavage": 0.135}
{"alteration": "G5C A16U", "self-cleavage": 0.169}
{"alteration": "G25U G30U", "self-cleavage": 0.162}
{"alteration": "U38A U69G", "self-cleavage": 0.971}
{"alteration": "G1U A10C", "self-cleavage": 0.186}
{"alteration": "G3C U69A", "self-cleavage": 0.209}
{"alteration": "G28A C63U", "self-cleavage": 0.195}
{"alteration": "U36G U55C", "self-cleavage": 0.177}
{"alteration": "G41A G56A", "self-cleavage": 0.77}
{"alteration": "G19U G48A", "self-cleavage": 0.673}
{"alteration": "U38C A60U", "self-cleavage": 0.331}
{"alteration": "C63G U69G", "self-cleavage": 0.921}
{"alteration": "U55C G56A", "self-cleavage": 0.996}
{"alteration": "U21G U49A", "self-cleavage": 0.527}
{"alteration": "G5C U49G", "self-cleavage": 0.282}
{"alteration": "U38C U53G", "self-cleavage": 0.682}
{"alteration": "G2A C32G", "self-cleavage": 0.0194}
{"alteration": "U38A C57G", "self-cleavage": 0.297}
{"alteration": "G17A U38A", "self-cleavage": 0.241}
{"alteration": "G11U A60U", "self-cleavage": 0.281}
{"alteration": "C22G A40G", "self-cleavage": 0.204}
{"alteration": "G2A C54G", "self-cleavage": 0.0929}
{"alteration": "C32U C34U", "self-cleavage": 0.924}
{"alteration": "C45U U64A", "self-cleavage": 0.88}
{"alteration": "G37A U53G", "self-cleavage": 0.222}
{"alteration": "U49A U64A", "self-cleavage": 0.942}
{"alteration": "G37A U69G", "self-cleavage": 0.538}
{"alteration": "C12G C22G", "self-cleavage": 0.208}
{"alteration": "A16G G47A", "self-cleavage": 0.933}
{"alteration": "G11U A52U", "self-cleavage": 0.851}
{"alteration": "G4U A8G", "self-cleavage": 0.512}
{"alteration": "U53A C63A", "self-cleavage": 0.673}
{"alteration": "G5U G37A", "self-cleavage": 0.11}
